As shown below, each of these compounds has a reported melting point value.

Example results:
- compound: "CC(Cc1c[nH]c2ccccc12)(NCc1cc2ccccc2o1)C(=O)NCc1cccc(O)c1 (stereo unspecified)"
  meas value: "60 to 69 °C"
- compound: "CCN(CC)C(=O)N(C)C(=O)Nc1ccccc1"
  meas value: "88 to 89.5 °C"
- compound: "Cc1cc(C)cc(COCC(NC(=O)c2ccccc2)C(c2ccccc2)c2ccccc2)c1 (stereo unspecified)"
  meas value: "128 to 129 °C"
- compound: "O=C(Cn1ccnc1)c1ccc(F)cc1F"
  meas value: "125 °C"
- compound: "C#CCN1CCNC1=C[N+](=O)[O-]"
  meas value: "146 to 147 °C"
- compound: "CN1CCN(Cc2ccc(C(=O)O)cc2)CC1"
  meas value: "310 to 312 °C"
- compound: "Cn1c(=O)c([N+](=O)[O-])c(O)c2ccccc21"
  meas value: "193 °C"
- compound: "COc1ccc(Sc2cc3ccccc3nn2)cc1"
  meas value: "108 °C"

I have this compound here, Cc1cc(C(N)=O)ncc1C(c1c(F)ccc(F)c1F)S(=O)(=O)CCCO (stereo unspecified) , and I need its recorded melting point.
148 to 150 °C

Data request, read-out melting point, for N#C[C@@H](NCc1ccccc1)[C@@H]1CSC(=O)N1Cc1ccccc1
131 to 132 °C

// lookup melting point for CC(C)c1cc(N)c(S(N)(=O)=O)cc1S(N)(=O)=O
185 to 186 °C

* * *

measurement kind: melting point

Worked examples, 6 molecules total:
- molecule: "COc1ccc(N2C(=O)C(=C3CCCN3C)c3ccccc32)cc1F"
  melting point: "68 to 71 °C"
- molecule: "COC(=O)c1scc(-c2ccccc2)c1-c1ccc(SCOC(C)=O)c(F)c1"
  melting point: "103 to 104 °C"
- molecule: "CSc1nn(C)c2ccccc2c1=O"
  melting point: "173 to 175 °C"
- molecule: "Cc1noc2cc3c(cc12)C1(CO3)C(=O)N(CCC(C)C)c2ccccc21 (stereo not given)"
  melting point: "135 to 138 °C"
- molecule: "O=C(Nc1ccc2c(c1)OC(F)(F)O2)N1CC(c2ccc(Cl)cc2)=C(c2ccc(Cl)cc2)N1"
  melting point: "150 to 155 °C"
- molecule: "CN(CCOc1ccc(C=CC(=O)N2CCc3c([nH]c4ccccc34)C2c2ccc3c(c2)CCO3)cc1)C(=O)OC(C)(C)C (stereo not given)"
  melting point: "110 °C"

Would you kindly share the measured melting point for CCOC(=O)c1cn(-c2ccc([N+](=O)[O-])cn2)nc1SCc1ccccc1 ?
164 to 166 °C

Which melting point value belongs to N#Cc1ccc(C(=O)C(Br)C(Br)c2ccc(C#N)cc2)cc1 (stereo not given) ?
192 to 193 °C

# get_value(readout='melting point', item= CCCCCCCCCCCCCCCCCC(=O)NCCCSc1ccncc1 )
88 to 89 °C

Which melting point reading was recorded for the molecule COC(=O)CC1CCNC1 (stereo not given) ?
68.5 to 69.5 °C

For the molecule CCOC(=O)C1(C(=O)OCC)CCC2(c3cc(OC)c(OC)cc3CCN2C(C)=O)C(C2c3cc(OC)c(OC)cc3CCN2C)C1 (stereo not given) , what melting point is on record?
166 to 168 °C

Request the reported melting point associated with CCCc1cc(Cl)c2oc(Cc3ccc(OC)cc3)c(C)c2c1OC(C)=O
119 to 120 °C

What does the record list as melting point for Cc1cccc(C(=O)O)c1NC(=O)COc1ccccc1 ?
174 to 176 °C

* * *

measurement kind: melting point

Some entries whose results are on file:
- mol: "CNC(=O)COCC(=O)O"
  melting point: "33 to 33.5 °C"
- mol: "CCOC(=O)c1cn(C23CC(C2)C3)c2cc(Cl)c(F)cc2c1=O"
  melting point: "223 to 225 °C"
- mol: "CC(=O)Oc1ccc(C=CC(=O)C=Cc2ccc(OC(C)=O)cc2)cc1"
  melting point: "167 to 168 °C"
- mol: "CCONC(=O)c1ccc(-c2cccc(CN(C)Cc3ccccc3)c2)cn1"
  melting point: "85 to 90 °C"
- mol: "CCOC(=O)CCc1ccc(OCC(=O)N(CC)CC)cc1Oc1ncc(C(F)(F)F)cc1Cl"
  melting point: "88.5 to 89 °C"
- mol: "[O-][N+](O)=Cc1ccc(Cl)cc1"
  melting point: "151 to 153 °C"
- mol: "O=C(Nc1ccncc1)c1ccc(OC(F)F)c2oc3ccc(C(F)(F)F)cc3c12"
  melting point: "228 °C"
- mol: "Nc1cc(F)ccc1C(=O)C1CCN(CCn2c(=O)[nH]c3ccccc3c2=O)CC1"
  melting point: "270 °C"

Quick check: melting point of CCCCCC1=CC(=O)C2=C(OC(C)(C)c3ccc(C)cc32)C1=O ?
53 to 54 °C

What value of measured melting point is listed for N#Cc1oc2cc(Cl)ccc2c1O ?
205 °C

* * *

measurement kind: melting point

- compound: "COC(=O)c1c(F)cc(OCCNC(=O)C2Cc3ccccc3N2S(=O)(=O)c2ccc(-c3ccc(F)cc3Cl)cc2)cc1F (centres undefined)"
  melting point: "68 to 74 °C"
- compound: "CCN(CC)c1nc(Cl)c([N+](=O)[O-])s1"
  melting point: "85 °C"
- compound: "CCc1onc(-c2ccccc2)c1C(=O)NCCCN1CCN(c2ccc(F)cc2OCC(F)(F)F)CC1"
  melting point: "115 to 117 °C"
- compound: "CN1CCCC(COc2ccc(/C=c3\\[nH]c(=O)/c(=C/c4ccccc4)[nH]c3=O)nc2)C1 (centres undefined)"
  melting point: "326 to 328 °C"

Query: melting point; subject: CO/C=C(/C(=O)OC)n1cccc1C=O
58 to 59 °C

# get_value(readout='melting point', item= COc1ccc2nc(CC(C)C)c(CN)c(-c3ccccc3)c2c1 )
73 to 76 °C

Fill in: melting point of CN(C)CCN(C)C(=O)Cn1c(-c2ccc(Cl)cc2)nc2cccnc21 is ___
120 to 122 °C

// melting point lookup, key: CCOC(=O)C(=CNc1cnnn1C)C(=O)c1cc(F)c(Cl)nc1Cl
187 to 189 °C

Tell me the measured melting point of CC(C(=O)NC1CCCCC1)N1CCN(c2ccccn2)CC1 (centres undefined) , please.
126 to 128 °C

* * *

The compounds listed here are annotated with their melting point.

For orientation, consider the following solved cases.
- compound: "CC(C)Nc1cccnc1N1CCN(C(=O)c2ccc(C(=O)NC(C)(C)C)cn2)CC1"
  meas value: "161 to 162 °C"
- compound: "COc1ccc(/C=C/c2cc(OC)c(OC)c(OC)c2)cc1"
  meas value: "152 to 155 °C"
- compound: "COC(=O)N(COc1ccc(Cl)cc1Cl)c1ccc(Cl)cc1"
  meas value: "70 to 80 °C"
- compound: "CC(C)(C)c1cc(CN2CCN(c3ccc(N)cc3)CC2)cc(C(C)(C)C)c1O"
  meas value: "152 to 154 °C"
- compound: "Cc1cc(C)cc(Nc2ncc(-c3ccccc3)s2)c1"
  meas value: "175 to 176 °C"
- compound: "C#CCOc1cc(NNC(=S)C(C)(C)C)c(Cl)cc1Cl"
  meas value: "126 to 128 °C"
- compound: "Cc1cccc(C(N)c2ccc(OCCOc3ccc(C(N)c4cccc(C)c4)cc3)cc2)c1 (stereo unspecified)"
  meas value: "113 to 115 °C"
- compound: "CCc1cc(C(=O)c2ccccc2Cl)c(-n2c(C)nnc2CO)s1"
  meas value: "140 to 141 °C"
- compound: "Cc1ccc(N)c(C(=O)NCCC(C)n2ccnc2)c1 (stereo unspecified)"
  meas value: "128 to 130 °C"
- compound: "CON=CNC(=O)c1ccc(Br)cc1C"
  meas value: "119 to 122 °C"

Any idea what melting point was measured for CC(C)(C)c1ccccc1N1CCN(C(=O)c2nc[nH]n2)CC1 ?
295 °C

Value lookup for melting point; key = O=C(Nc1cccc(NC(=O)C(F)(F)F)c1)Nc1ccc(Cl)c(Cl)c1
221 to 223 °C

Quick one: melting point for O=C(O)CCCOc1cccc(C2CCCCC2)c1 ?
83 to 84 °C

Name the reported melting point value associated with the compound CCC12CCC3c4ccc(OC)cc4C(C)CC3C1CCC21OCCO1 (stereo unspecified)
130 to 134 °C

# query: melting point of entry CC(C)CNS(=O)(=O)c1cccc(NC(=O)c2cnn3c(C(F)(F)F)cc(-c4ccc(C(F)(F)F)cc4)nc23)c1
205 °C

* * *

Measured melting point, listed per entry.

- molecule: "CCc1sc2c(c1S(=O)(=O)c1ccc(O)cc1)CC(Cc1ccccc1Cl)NC2 (centres undefined)"
  melting point: "176 °C"
- molecule: "COC(=O)C[C@@H]1C[C@@H](COc2ccc(-c3ccc(C#N)cc3)cc2N)N(CCCc2ccccc2)C1=O"
  melting point: "111 to 112 °C"
- molecule: "Oc1ccc(-c2cn(-c3ccc(C(F)(F)F)cc3F)nn2)cc1"
  melting point: "215 to 216 °C"
- molecule: "O=C(NC1CN2CCC1CC2)C(O)(c1cccs1)c1cccs1 (centres undefined)"
  melting point: "169 °C"
- molecule: "N#Cc1cc(C(F)(F)F)nn1-c1ccc(NC(=O)c2cccnc2F)cc1"
  melting point: "150 to 151 °C"

Would you mind telling me what melting point value was observed for COc1ccc(S(=O)(=O)N(Cc2cc(C(C)(C)C)c(O)c(C(C)(C)C)c2)c2cccnc2)cc1 ?
142 to 143 °C

I'd like to know its melting point. The molecule in question is Nc1ccc(-c2c(Cc3ccccc3)sc3ncnc(N)c23)cc1
208 to 210 °C

So what does the record say about melting point for Cc1ccccc1NS(=O)(=O)c1ccc(NC2=C(Cl)C(=O)c3ccccc3C2=O)cc1 ?
265 to 266 °C

Recorded melting point of CN(C)c1cccc(C(=O)N2CCN(CCc3ccc(Cl)cc3)CC2)c1 , please.
110 to 112 °C
